Target: T1, human CD3 (human, UniProt P07766 23-207; P09693 23-182; P04234 22-171)
T1 construct: whole, on cells; also called CD3 on Jurkat T cells; CD3 on primary human T cells
Assay: flow cytometry, hybridoma supernatant on CD3+ Jurkat cells
Please go through the items and note down their MFI.
Answers are plain numbers, in MFI.

Memo: F332-8F7 (antibody, mouse IgG2a, V domains shown, also called F332-8F7-3) VH: QVQLQQPGAELGKPGTSVKLSCKASGYTFTSYWIHWVKQRPGQGLEWIGNINPNSGSTNYNEKFKNKATLTVDKSSSTASMQLSTLTSEDSAVYYCTRDISGQYYFDYWGQGTTLTVSS VL: DIVMSQSPSSLAVSTGGEVTMSCKSSQSLLNSRTRKNYLAWYQQKPGQSPKLLIYWASTRESGVPDRFTGSGSGTDFTLTISSVQAEDLAVYYCIQSYSLRTFGGGTKLGIK , reported MFI: 312

# context switch: different binder, same MFI
Entry F332-10B6 (antibody, mouse IgG2a, V domains shown, also called F332-10B6-2; F332-12B5-1) VH: QVQLQQPGAELGKPGTSVNLSCKASGYTFTDYWIHWVKQRPGQGLEWIGNINPNSGDTNYNENFKTKATLTVDRSSSTAYMQLSSLTSEDSAVYYCTRDISGQYYFDFWGQGTTLTVSS VL: DIVMSQSPSSLAVSAGEKVTMSCKSSQSLLNSRTRKNYLAWYQQKPGQSPKLLIYWASTRESGVPDRFTGSGSGTDFTLTISSVQAEDLAVYYCIQSYNLRTFGGGTKLEIK — recorded MFI = 143
